Recorded values, source ChEMBL document CHEMBL1154335.

- method.notes: Oral bioavailability in rat at 3 mg/kg
- Assay type: ADME, organism-based
- setup.conditions: in vivo
test.readout: bioavailability (%)

* O=C(Nc1cscc1-c1nc(O)c(O)c(C(=O)O)n1)NS(=O)(=O)c1cccc2ccccc12 | 2

====

- method.notes: Inhibition of HCV3a Cdelta21 NS5B polymerase
- Parameters: species or system Hepatitis C virus subtype 3a
test.readout: IC50

* O=C(Nc1cscc1-c1nc(O)c(O)c(C(=O)O)n1)NS(=O)(=O)c1cccc2ccccc12 | 3.9 nM

====

- method.notes: Inhibition of HCV2b Cdelta21 NS5B polymerase
- Set-up: species or system Hepatitis C virus subtype 2b
pIC50: −log10 of the molar value.
test.readout: pIC50

* O=C(Nc1cscc1-c1nc(O)c(O)c(C(=O)O)n1)NS(=O)(=O)c1cccc2ccccc12 | 8.24

====

- method.notes: Bioavailability in intramuscular dosed rat
- Format: ADME, organism-based
- setup.conditions: in vivo, im
test.readout: bioavailability (%)

* O=C(Nc1cscc1-c1nc(O)c(O)c(C(=O)O)n1)NS(=O)(=O)c1cccc2ccccc12 | 89

====

- method.notes: Metabolic stability in rat assessed as compound turnover at 3 mg/kg, iv
- Format: ADME, organism-based
- Parameters: dose 3 mg/kg, route intravenous
- setup.conditions: in vivo, read-out: Stability
test.readout: clearance

• O=C(Nc1cscc1-c1nc(O)c(O)c(C(=O)O)n1)NS(=O)(=O)c1cccc2ccccc12 = 0.2 mL/min/kg

====

- method.notes: Protein binding in rat serum
- Type: ADME, cell-free
- setup.conditions: read-out: PB
test.readout: fraction unbound

* O=C(Nc1cscc1-c1nc(O)c(O)c(C(=O)O)n1)NS(=O)(=O)c1cccc2ccccc12 | < 0.01

====

- Tested on: Hepatitis C virus
- method.notes: Inhibition of HCV con1 Cdelta55 NS5B polymerase G152E mutant
- Type: functional, Hepacivirus hominis
- setup.conditions: isolate Con1
pIC50: −log10 of the molar value.
Each item that follows carries a reported pIC50.
test.readout: pIC50

- O=C(Nc1cscc1-c1nc(O)c(O)c(C(=O)O)n1)NS(=O)(=O)c1ccccc1Br: 6.40
- Cn1c(-c2cccs2)nc(C(=O)O)c(O)c1=O: 5.49
- O=C(Nc1cscc1-c1nc(O)c(O)c(C(=O)O)n1)NS(=O)(=O)c1cccc2ccccc12: 6.52
- O=C(NCc1ccccc1Cl)Nc1ccsc1-c1nc(O)c(O)c(C(=O)O)n1: 6.10

====

- Tested on: Hepatitis C virus
- method.notes: Antiviral activity against Hepatitis C virus subtype 2a infected in human HuH7 cells by replicon assay
- Assay type: functional, organism-based, Hepacivirus hominis, genotype 2a, Huh-7
- setup.conditions: Hepatitis C virus, genotype 2a, Huh-7
pEC50: −log10 of the molar value.
Each item that follows carries a reported pEC50.
test.readout: pEC50

- O=C(Nc1cscc1-c1nc(O)c(O)c(C(=O)O)n1)NS(=O)(=O)c1ccccc1Cl: 5.18
- O=C(Nc1cscc1-c1nc(O)c(O)c(C(=O)O)n1)NS(=O)(=O)c1cccc(Cl)c1Cl: 5.31
